# assay: NCI Yeast Anticancer Drug Screen. Data for the cln2 rad14 strain (AID 165);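 further: 0% = growth equal to vehicle treated cultures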
# condition-label: S. cerevisiae cln2 rad14 strain, at 50.0 µM, active compounds read high
About 79,000 compounds went through this panel and 15% of them were active in at least one assay; those are over-represented in the sample as a whole.
Provide the reported growth inhibition of each item.
Form entry: value (%) — number only.

q: # growth inhibition lookup, item CC(C)CC(NC(=O)OC(C)(C)C)C(=O)NC(Cc1c[nH]c2ccccc12)C(=O)NN (stereo not drawn)
a: 32.3

q: # growth inhibition lookup, item COc1ccc([N+](=O)[O-])cc1NC(=S)NC(=O)c1cccc(Br)c1
a: -63.6

q: # growth inhibition lookup, item N#CC(c1ccccc1)c1cccc(C(=O)O)c1 (stereo not drawn)
a: -20.4

q: # growth inhibition lookup, item CC(=O)Nc1c([N+](=O)[O-])cc(C2CCCCC2)cc1[N+](=O)[O-]
a: -34.5

q: # growth inhibition lookup, item C/C(=N\[N+](C)(C)C)c1ccc(C)c(C)c1
a: 17.9

q: # growth inhibition lookup, item N#Cc1c(-c2ccccc2)cc(-c2cccs2)c(C#N)c1N
a: -35.3

q: # growth inhibition lookup, item COc1cc(CN2CCN(CCO)CC2)c(O)c(CN2CCN(CCO)CC2)c1
a: -6.9

q: # growth inhibition lookup, item CCOC(=O)CC(C#N)C(C)C(=O)OCC (stereo not drawn)
a: 6.5

Value source: PubChem BioAssay (NCI)
